# ASSAYED_SYSTEM: T1, O5
# T1 chain: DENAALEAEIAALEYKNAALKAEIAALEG
# TEST_NAME: two-hybrid library CCNG1;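 further: natural log of median RNA to DNA barcode read ratio; higher means stronger binding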
# if value of interaction score reaches -2, tag Fulfilled; if it stays below, tag Not fulfilled

DKNAALKAENAALEYEIAALEAEIAALEG [O1] = Not fulfilled

Inquiry: Hi team, for DKIAALKAEIAALEYENAALEAENAALEG [O11] , is the recorded interaction score at or above -2?
Reply text: Not fulfilled

Inquiry: Now consider DKIAALKAKNAALKYEIAALEAKNAALKG [O16] .
Reply text: Fulfilled

Inquiry: Now consider DKNAALKAKIAALKYKNAALKAEIAALEG [O13] .
Reply text: Fulfilled
